The values you see were collected from patent US11666594B2.

Items are presented alongside their recorded Human plasma stability.
# test description: Human plasma stability assay
# Format: in vitro ADME
# protocol conditions: elimination rate constant k; heparinized human plasma, 37° C., up to 24 hours
Record the value in h⁻¹, omitting the unit from your answer.

Nc1ncnc2c1ncn2[C@@H]1O[C@@H]2COP(=O)(O)O[C@@H]3[C@H](O)[C@@H](COP(=O)(S)O[C@H]2[C@H]1F)O[C@H]3n1cc(F)c2c(=O)[nH]cnc21 (stereo partly shown) [Ex3a] : 0.58

Now examine the next entry.
Query: Item under review: Nc1nc2c(ncn2[C@@H]2O[C@@H]3COP(=O)(O)O[C@H]4[C@@H](O)[C@H](n5cnc6c(N)ncnc65)O[C@@H]4COP(=O)(O)O[C@@H]2[C@@H]3O)c(=O)[nH]1 [cGAMP, 2′,3′-cGAMP, reference compound] . Reported Human plasma stability?
Response: 1.39

----------
# Test system: THP1-Dual cells
# test description: THP-1 Dual Lucia reporter gene assay
# Type: cell-based, human
# protocol conditions: 20 hours; read-out: THP-1 Dual cell EC50 (μM) Reporter
readout label: EC50 (µM)
Record the value in µM, omitting the unit from your answer.

Query: Item under review: Nc1ncnc2c1ncn2[C@@H]1O[C@@H]2COP(=O)(O)O[C@@H]3[C@H](O)[C@@H](COP(=O)(S)O[C@H]2[C@H]1F)O[C@H]3n1cc(F)c2c(=O)[nH]cnc21 (stereo partly shown) . Reported EC50?
Response: 5.6

----------
# measured on: WT STING (Homo sapiens (Human), UniProt Q86WV6, H232R)
# Sequence (Q86WV6 whole entry H232R): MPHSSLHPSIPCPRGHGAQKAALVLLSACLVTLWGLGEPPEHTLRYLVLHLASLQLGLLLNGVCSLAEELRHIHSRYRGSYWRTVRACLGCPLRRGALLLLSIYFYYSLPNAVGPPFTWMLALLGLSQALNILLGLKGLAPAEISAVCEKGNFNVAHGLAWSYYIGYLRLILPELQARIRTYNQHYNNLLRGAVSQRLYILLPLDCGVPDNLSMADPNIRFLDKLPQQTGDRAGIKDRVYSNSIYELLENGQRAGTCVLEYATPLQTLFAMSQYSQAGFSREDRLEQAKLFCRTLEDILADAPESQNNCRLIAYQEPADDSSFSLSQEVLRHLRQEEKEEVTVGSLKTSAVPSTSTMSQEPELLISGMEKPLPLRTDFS
# test description: Reporter gene assay (2): ISRE NanoLuc reporter in 293T cells, with digitonin, WT STING
# Type: cell-based
# protocol conditions: with digitonin; read-out: STING-293T cell EC50 (μM) Reporter with digitonin (B)
Where a name gives a salt, the structure may show the parent alone.
readout label: EC50 (µM)
Record the value in µM, omitting the unit from your answer.

Example entries and their recorded answers appear below.
Nc1ncnc2c1ncn2[C@@H]1O[C@@H]2COP(=O)(S)O[C@@H]3[C@H](O)[C@@H](COP(=O)(S)O[C@H]2[C@H]1F)O[C@H]3n1cc(F)c2c(=O)[nH]cnc21 (stereo partly drawn) [Example 14, disodium salt] : 0.13
Nc1ncnc2c1ncn2[C@@H]1O[C@@H]2COP(=O)(O)O[C@@H]3[C@H](O)[C@@H](COP(=O)(S)O[C@H]2[C@H]1F)O[C@H]3n1cc(F)c2c(=O)[nH]cnc21 (stereo partly drawn) [Ex3a] : 0.13

Now examine the next entry.
Query: Identify the measured EC50 of Nc1ncnc2c1ncn2[C@@H]1O[C@@H]2COP(=O)(S)O[C@@H]3[C@H](O)[C@@H](COP(=O)(S)O[C@H]2[C@H]1O)O[C@H]3n1cc(F)c2c(=O)[nH]cnc21 (stereo partly drawn) [Example 5] for WT STING (Homo sapiens (Human), UniProt Q86WV6, H232R).
Response: 0.19

----------
# measured on: WT STING (Homo sapiens (Human), UniProt Q86WV6, H232R)
# test description: Reporter gene assay (2): ISRE NanoLuc reporter in 293T cells, with digitonin, WT STING
# Type: cell-based
# protocol conditions: HEK-293T; 30 μM; digitonin; 2′,3′-cGAMP (30 μM) = 100%; read-out: activity level against WT STING of test compound (30 μM)
Where a name gives a salt, the structure may show the parent alone.
readout label: activation at 30 µM (%)
Record the value in %, omitting the unit from your answer.

Nc1ncnc2c1ncn2[C@@H]1O[C@@H]2COP(=O)(S)O[C@@H]3[C@H](O)[C@@H](COP(=O)(S)O[C@H]2[C@H]1O)O[C@H]3n1cc(F)c2c(=O)[nH]cnc21 (some centres unmarked) [Example 5] : 102
Nc1ncnc2c1ncn2[C@@H]1O[C@@]23CO[C@@H]1[C@@H]2OP(=O)(O)OC[C@H]1O[C@@H](n2cc(F)c4c(=O)[nH]cnc42)[C@H](OP(=O)(O)OC3)[C@@H]1O [Example 16] : 114
Nc1ncnc2c1ncn2[C@@H]1O[C@@H]2COP(=O)(O)O[C@@H]3[C@H](O)[C@@H](COP(=O)(O)O[C@H]2[C@H]1F)O[C@H]3n1cc(F)c2c(=O)[nH]cnc21 [Example 1a, disodium salt] : 99
Nc1ncnc2c1ncn2[C@@H]1O[C@@H]2COP(=O)(O)O[C@@H]3[C@H](O)[C@@H](COP(=O)(O)O[C@H]2[C@H]1F)O[C@H]3n1cc(F)c2c(=O)[nH]cnc21 [Example 1] : 97

Now examine the next entry.
Query: Item under review: Nc1ncnc2c1ncn2[C@@H]1O[C@@H]2COP(=O)(O)O[C@@H]3[C@H](O)[C@@H](COP(=O)(S)O[C@H]2[C@H]1F)O[C@H]3n1cc(F)c2c(=O)[nH]cnc21 (some centres unmarked) [Example 3] . Reported activation at 30 µM?
Response: 97
